B1: HDV Ribozyme (parent)
chain: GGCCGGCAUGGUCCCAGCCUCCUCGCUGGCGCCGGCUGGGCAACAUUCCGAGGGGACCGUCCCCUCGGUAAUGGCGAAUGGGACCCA

Variants of: B1
Assay: self-cleavage, relative activity (ratio to wild type); higher = more cleavage; co-transcriptional
Recorded self-cleavage determines the group label, using Low (below 0.2), Mid (0.2 to below 0.4), High (0.4 or more)

C15G C41G ... Mid
C57U A77U ... High
C57U A83C ... High
G2A C64U ... Low
A16G A70C ... High
U37G C64U ... Low
C32A A78U ... Low
C61A A78U ... Low
G10A G59U ... High
U20G A78U ... Low
G29C A43G ... Low
C13G U46G ... Low
C32G C85G ... Low
U27C C48A ... High
C26G U37C ... High
G5C G74C ... Low
G2A C64A ... Mid
A16C C57A ... High
G34U C66U ... Low
G73A G82C ... Low
G34C A70C ... Low
C22G C75A ... Low
C86G A87U ... High
G25A U72A ... Low
G76U C86U ... High
A45C G59U ... High
U60A A77U ... High
A8U C63U ... High
C15A C61U ... High
G6A A70G ... High
G11C G53C ... Mid
G10C G82U ... Mid
C21A G28A ... Low
G10A A51U ... High
C19U U46C ... Mid
C30A A78C ... Low
U20C A42U ... Low
G28U C61U ... Low
G53C G80C ... Low
C36G G76U ... Mid
G1A C4G ... Low
G5C U20C ... Low
G73U G74C ... Low
G28C C48A ... Low
U23G U79A ... Mid
G10U G54C ... High
A45C G80A ... Low
A77U G81C ... Low
C15G C86G ... Mid
C18U U27A ... High
C4U G73A ... Mid
U47G C58G ... High
U27C A43U ... Mid
U12G U37A ... Low
G55A G73C ... High
C3G G11A ... Low
U20A C30G ... Low
A16G C84U ... High
U27A U72C ... Mid
C19G U69C ... Low
U9A U37G ... Mid
G34U G74U ... Low
A51U G74C ... Mid
G1U G17A ... Mid
A42C G68A ... Mid
C4A A77U ... Low
G59A U72A ... High
G28A C84U ... Low
C32G A45U ... Low
A51U G76U ... High
C4A C33G ... Low
A42U A87C ... High
C24U U60C ... High
G50C C58U ... High
C26A U47G ... High
C62G C85U ... High
C14A C75U ... Low
G53A C66U ... High
A51C G82U ... Mid
C14G G74U ... Low
G2C U20G ... Low
C33A C62A ... Mid
G68A G82U ... Mid
C30G C57U ... Low
G68A G74A ... High
A56U G74C ... Mid
